The values you see were collected from patent US20210253718A1.

# System: RWP1 cells
# measurement protocol: Effect of anti-FZD5 Fabs on proliferation of pancreatic cancer cell lines (percent growth inhibition)
# Format: cell-based, human
# condition context: Fab 2 μg/ml
reported endpoint: percent growth inhibition, RWP1 2 μg/ml (%)

| molecule | result value |
| --- | --- |
| Fab-2929: anti-FZD5 Fab with antibody variable region Fv-2929; CDR SEQ ID NOs: 35, 36, 68, 106, 144, 162 (antibody, V domains shown) VH: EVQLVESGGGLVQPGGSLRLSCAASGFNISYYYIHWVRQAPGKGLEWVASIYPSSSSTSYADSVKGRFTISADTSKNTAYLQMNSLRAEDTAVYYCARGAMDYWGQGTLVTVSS VL: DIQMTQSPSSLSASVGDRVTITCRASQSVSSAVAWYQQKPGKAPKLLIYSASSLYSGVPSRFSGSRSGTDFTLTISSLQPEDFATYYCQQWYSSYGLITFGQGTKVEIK | 0.41 |
